These entries and their values trace back to the NIST ThermoML archive (doi:10.1016/j.jct.2018.02.013).

Let's look at some compounds and their measured mass density.
conditions: 313.15 K; 101.33 kPa; Liquid; Vibrating tube method
# output: bare number, implied unit kg/m3

Some solved cases for reference:
Could you please provide reported mass density for CCCCCCCCCC(=O)[O-].CCCCCCCCCCCCCC[P+](CCCCCC)(CCCCCC)CCCCCC [trihexyltetradecylphosphonium decanoate] ? Thanks!
868.1

// Input: CCCC(=O)[O-].CCCCCCCCCCCCCC[P+](CCCCCC)(CCCCCC)CCCCCC [trihexyl(tetradecyl)phosphonium butyrate] . Output its mass density only.
881.2

Further cases:
Complete the entry with mass density for CCCCCCCC(=O)[O-].CCCCCCCCCCCCCC[P+](CCCCCC)(CCCCCC)CCCCCC [trihexyl(tetradecyl)phosphonium octanoate]
872.1

Indicate the recorded mass density value for this compound: CCCCCC(=O)[O-].CCCCCCCCCCCCCC[P+](CCCCCC)(CCCCCC)CCCCCC [trihexyl(tetradecyl)phosphonium hexanoate]
876

Name the recorded mass density of the item CC(=O)[O-].CCCCCCCCCCCCCC[P+](CCCCCC)(CCCCCC)CCCCCC [trihexyl(tetradecyl)phosphonium acetate] in your answer.
885.2
